target: Recombinant human cathepsin A (Homo sapiens, UniProt P10619); construct: Recombinant human cathepsin A (residues 29-480, with a C-terminal 10-His tag); 10-His (C); purchased R&D Systems 1049-SE; assay: Cathepsin A inhibitory activity; type: biochemical; details: read-out: Activity (2): Cathepsin A inhibitory activity, IC50 class
Sequence (P10619 29-312 limits assumed): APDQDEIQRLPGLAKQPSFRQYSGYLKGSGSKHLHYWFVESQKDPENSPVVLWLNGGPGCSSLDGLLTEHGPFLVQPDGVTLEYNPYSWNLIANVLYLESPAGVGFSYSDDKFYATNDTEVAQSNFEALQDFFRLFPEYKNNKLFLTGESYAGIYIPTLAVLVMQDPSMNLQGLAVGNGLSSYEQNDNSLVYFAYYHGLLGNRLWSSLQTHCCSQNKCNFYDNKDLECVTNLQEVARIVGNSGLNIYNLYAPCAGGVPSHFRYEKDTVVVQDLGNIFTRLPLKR
Sequence (P10619 327-480 limits assumed): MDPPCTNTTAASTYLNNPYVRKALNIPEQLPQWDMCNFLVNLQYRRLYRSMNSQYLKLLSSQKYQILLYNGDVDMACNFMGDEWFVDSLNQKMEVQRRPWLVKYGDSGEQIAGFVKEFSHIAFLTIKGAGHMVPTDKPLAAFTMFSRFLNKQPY
pIC50: −log10 of the molar value.
measure: pIC50

Worked cases, pIC50 given:
CC(C)(C)[C@H](O)COc1cc(C(=O)N[C@@H](CC(=O)O)c2ccccc2Cl)nn1-c1ccccc1F; > 7.00
COc1ccc(C(CC(=O)O)NC(=O)c2cc(O)n(-c3ccc(F)c(Cl)c3)n2)c(F)c1 (centres unmarked); 4.52 to 6.00
COc1ccc([C@H](CC(=O)O)NC(=O)c2cc(O)n(-c3ccccc3)n2)cc1; 6.00 to 7.00
CC(C)C(C)(O)COc1cc(C(=O)NC(CC(=O)O)Cc2ccccc2)nn1-c1ccccc1F (centres unmarked); 6.00 to 7.00
O=C(O)C[C@H](NC(=O)c1cc(O)n(-c2cccc(F)c2)n1)c1ccc(F)cc1; 6.00 to 7.00

pIC50 recorded for this molecule, O=C(O)CC(NC(=O)c1cc(O)n(-c2ccccc2)n1)c1cccc(F)c1 (centres unmarked) , is 4.52 to 6.00

Lab note: measured pIC50 of O=C(O)C[C@H](NC(=O)c1cc(O)n(-c2ccc(Cl)cc2)n1)c1cccc(C(F)(F)F)c1 was 4.52 to 6.00

Input Cc1ccc(C)c(-n2nc(C(=O)NC(CC(=O)O)C3CCCCC3)cc2O)c1 (centres unmarked) . Output pIC50: 4.52 to 6.00

get_value(item= COc1ccc(Cl)cc1C(CC(=O)O)NC(=O)c1cc(O)n(-c2ccccc2)n1 (centres unmarked) , readout=pIC50) returns 6.00 to 7.00

Entry O=C(O)CC(NC(=O)c1cc(O)n(-c2ccccc2)n1)c1ccc(-c2ccc(F)cc2)cc1 (centres unmarked) ; pIC50 = 6.00 to 7.00

get_value(item= CC(C)C(C)(O)COc1cc(C(=O)N[C@@H](CC(=O)O)c2ccccc2C(F)(F)F)nn1-c1ccccc1F (some centres unmarked) , readout=pIC50) returns > 7.00

* * *

target: Recombinant human cathepsin A (Homo sapiens); construct: Recombinant human cathepsin A (residues 29-480, with a C-terminal 10-His tag); 10-His (C); purchased R&D Systems 1049-SE; experiment: Cathepsin A inhibitory activity; type: biochemical; settings: read-out: Activity (2): Cathepsin A inhibitory activity, IC50 class
pIC50: −log10 of the molar value.
Recorded measurements of pIC50, one per entry

In the examples that follow, each entry is paired with its recorded pIC50.
Cc1cccc([C@H](CC(=O)O)NC(=O)c2cc(O)n(-c3ccccc3)n2)c1 [Example 376]; 6.00 to 7.00
COc1cccc(C(CC(=O)O)NC(=O)c2cc(O)n(-c3ccccc3)n2)c1 (stereo not shown) [Example 9]; 6.00 to 7.00
Cc1ccccc1[C@H](CC(=O)O)NC(=O)c1cc(O)n(-c2ccccc2)n1 [Example 82]; > 7.00
COc1ccc([C@H](CC(=O)O)NC(=O)c2cc(O)n(-c3cccc(F)c3)n2)cn1 [Example 335]; 6.00 to 7.00
O=C(O)C[C@H](NC(=O)c1cc(O)n(-c2ccc(Cl)cc2)n1)c1c(F)cccc1F [Example 295]; 4.52 to 6.00

The reported value for O=C(O)C[C@H](NC(=O)c1cc(O)n(-c2ccc(F)cc2)n1)c1ccccc1Br [Example 339] in terms of pIC50 is 6.00 to 7.00

The recorded pIC50 for O=C(O)C[C@H](NC(=O)c1cc(O)n(-c2ccc(F)cc2)n1)c1ccc(Cl)cc1Cl [Example 370] is 6.00 to 7.00

Field pIC50 (entry CC(C)[C@](C)(O)COc1cc(C(=O)N[C@@H](CC(=O)O)c2cccc(Cl)c2)nn1-c1ccccc1F [Example 877] ) reads 6.00 to 7.00

Just so you know, measured pIC50 for O=C(O)C[C@H](NC(=O)c1cc(O)n(-c2ccc(Cl)cc2)n1)c1cccc(Cl)c1 [Example 280] came out at 4.52 to 6.00

CC(C)CC(CC(=O)O)NC(=O)c1cc(OCC(C)(O)C(C)C)n(-c2ccccc2F)n1 (stereo not shown) [Example 814] yielded pIC50 of > 7.00

Measured values drawn from patent US8664257B2 for this set.
